// provenance: PubChem BioAssay (NCATS)

Experimental protocol: qHTS assay for measurement of the activity of small molecule inhibitors on Zika virus induced Caspase-3 activity in human astrocytoma cells (AID 1224859);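 further: plate controls were ZIKV-infected untreated cells for no effect and uninfected cells for full effect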
Test conditions: SNB-19 ZIKV-induced caspase-3/7, luminescence, 6 h; series mostly up to 45.7 µM
Activity calls are given as the source filed them. The call rests on the fitted dose curve; in most records, active means well fitted inhibition curve with a large enough effect; inconclusive means small, poorly fitted or top-dose-only effect; inactive means no such curve, though single readings can be large or run the other way.

Smi	outcome
CC[C@@H]1C=C(C)C[C@H](C)C[C@H](OC)[C@H]2O[C@@](O)(C(=O)C(=O)N3CCCC[C@@H]3C(=O)O[C@H](C(C)=C[C@@H]3CC[C@H](Cl)[C@H](OC)C3)[C@H](C)[C@@H](O)CC1=O)[C@H](C)C[C@H]2OC	inactive
Cc1ccc([C@@H]2O[C@H](CO)[C@@H](O)[C@H](O)[C@@H]2O)cc1Cc1ccc(-c2ccc(F)cc2)s1	inactive
CC=C(C)C(=O)O[C@H]1C(C)=C[C@]23C(=O)[C@@H](C=C(CO)[C@@H](O)[C@]12O)[C@H]1[C@@H](C[C@H]3C)C1(C)C	inactive
O=c1[nH]cnc2c1ncn2[C@H]1CC[C@@H](CO)O1	inactive
CC1(C)CCC[C@@]2(C)[C@@H]1CC[C@@]1(C)OC(=O)C[C@H]21	inactive
O=c1cc(-c2ccc(O)cc2)oc2cc(O)cc(O)c12	inactive
COc1cc(Nc2ncc(F)c(Nc3ccc4c(n3)NC(=O)C(C)(C)O4)n2)cc(OC)c1OC	inactive
NCCS	inactive

* * *

Tested on: MKL-2
Experimental protocol: qHTS assay to identify novel small-molecules to repurpose for Merkel cell carcinoma treatment (AID 1296009); further: nearly all actives have a fitted effect of over 60% in size
Test conditions: MCC and control cell lines, CellTiter-Glo viability, 72 h; series mostly up to 46 µM
Records with an inconclusive call do not appear. Calls of active or inactive are those of the source. Calls come from the whole dose curve; as a rule, active = well fitted inhibition curve with a large enough effect; inconclusive = small, poorly fitted or top-dose-only effect; inactive = flat fitted curve, though single readings scatter.
Outcome codes: TRUE for active, FALSE for inactive

Compound	Label class
CC(C)(C)c1cc(C(=O)O)c(NC(=O)Nc2ccc3[nH]ncc3c2)s1	FALSE
COC[C@@H](c1ccc(C(F)(F)F)cc1)N1CCN(C2(C)CCN(C(=O)c3c(C)ncnc3C)CC2)C[C@H]1C	FALSE
CC(=NNC(=S)N1CCC1)c1ccccn1	FALSE
Cc1cccc(C)c1OCC(C)N (stereo not given)	FALSE
O=C(N[C@@H](c1ccccc1)[C@@H]1CCCCN1)c1cccc(C(F)(F)F)c1Cl	FALSE
COc1cc(NC(=O)c2ccc(-c3ccc(Cl)cc3)o2)cc(OC)c1	FALSE
CC/C(=C(\c1ccccc1)c1ccc(OCCN(C)C)cc1)c1ccccc1	TRUE
O=c1cc(N2CCOCC2)oc2c(-c3cccc4c3sc3ccccc34)cccc12	FALSE
NC(N)=Nc1nc(CSCC/C(N)=N/S(N)(=O)=O)cs1	FALSE
NC(=O)c1cnc(-c2ccc(C3(N)CCC3)cc2)c(-c2ccccc2)c1	FALSE
CN[C@@H](C)C(=O)N[C@H]1CN(C(=O)CC(C)C)CC[C@H]2CC[C@@H](C(=O)NC(c3ccccc3)c3ccccc3)N2C1=O	FALSE
CCC(CC)[C@H](NC(C)=O)[C@@H]1[C@H](O)[C@@H](C(=O)O)C[C@@H]1N=C(N)N	FALSE
Clc1ccc(-c2nc3sccn3c2C=NOCc2ccc(Cl)c(Cl)c2)cc1	FALSE
O=C1C(Cl)=C(NCCN2CCOCC2)C(=O)c2ncccc21	TRUE
CC(=O)Nc1ccc([C@H](C)C(=O)Nc2ncc(C(C)C)s2)cc1	TRUE
Cc1nnc(C(C)C)n1C1C[C@H]2CC[C@@H](C1)N2CC[C@H](NC(=O)C1CCC(F)(F)CC1)c1ccccc1 (stereo not given in full)	FALSE
CON=C(C(=O)N[C@@H]1C(=O)N2C(C(=O)OCOC(=O)C(C)(C)C)=C(C=Cc3scnc3C)CS[C@H]12)c1csc(N)n1	FALSE
COc1cc(N2CCC(N3CCN(C)CC3)CC2)ccc1Nc1ncc(Cl)c(Nc2ccccc2S(=O)(=O)C(C)C)n1	FALSE
CC(=O)N(C)C1(c2ccccc2)CCN(CCC[C@]2(c3ccc(Cl)c(Cl)c3)CCCN(C(=O)c3ccccc3)C2)CC1	TRUE
COc1ccc(-n2c(C)c([N+](=O)[O-])c3ccc(O)cc32)cc1	FALSE

* * *

Experimental protocol: Quantitative High-Throughput drug screen in 47 multiple myeloma cell lines against the NCATS MIPE library collection: NCIH929_DSMZ cell viability assay (AID 1918978); further: nearly all actives have a fitted effect of over 35% in size
Test conditions: NCI-H929 myeloma viability, CellTiter-Glo ATP, 48 h; series mostly up to 45.8 µM
Results filed as inconclusive are left out. Active and inactive are the calls of the source. Calls follow the shape of the dose curve; as a rule, active = well fitted cell-killing curve with a large enough effect; inconclusive = small, poorly fitted or top-dose-only effect; inactive = no such curve, though single readings can be large or run the other way.
Outcomes: active, inactive

Compound	Label class
O=c1c(-c2ccc(O)cc2)coc2cc(OC3O[C@H](CO)[C@H](O)[C@H](O)[C@H]3O)cc(O)c12 (stereo partly drawn)	active
CC(C)(C)NC(=O)Nc1cccc(Nc2ncc(F)c(NC(C)(C)CO)n2)c1	inactive
CC(C)(C)COc1ccc(-n2cc(C(=O)O)cn2)cc1C#N	inactive
CO[C@@H](C(=O)N1Cc2[nH]nc(NC(=O)c3ccc(N4CCN(C)CC4)cc3)c2C1)c1ccccc1	active
COc1cc2ncnc(-n3nc(-c4ccccn4)nc3N)c2cc1OC	active
CCC(CC)[C@H](NC(C)=O)[C@@H]1[C@H](O)[C@@H](C(=O)O)C[C@@H]1N=C(N)N	inactive
C=C1C(=O)[C@@]23C(CC[C@@H]1[C@H]2O)[C@@]12CO[C@]3(O)[C@@H](O)[C@@H]1C(C)(C)CC[C@@H]2O (stereo partly drawn)	active
CCOC(=O)O[C@]1(C(=O)OCCl)CC[C@@H]2[C@H]3CCC4=CC(=O)C=C[C@]4(C)[C@@H]3[C@@H](O)C[C@@]21C	inactive

* * *

Experimental protocol: Quantitative High-Throughput drug screen in 47 multiple myeloma cell lines against the NCATS MIPE library collection: OCIMY7_PLB cell viability assay (AID 1918987); further: potency means the concentration at half of the fitted maximal effect; nearly all actives have a fitted effect of over 65% in size
Test conditions: OCI-MY7 myeloma viability, CellTiter-Glo ATP, 48 h
Results filed as inconclusive are left out. Calls of active or inactive are those of the source. The call rests on the fitted dose curve; in most records, active means well fitted cell-killing curve with a large enough effect; inconclusive means small, poorly fitted or top-dose-only effect, or effect the other way; inactive means no such curve, though single readings can be large or run the other way.

Molecule	Potency
COc1cccc(-c2cc(=O)c3ccccc3o2)c1N	2960 nM (active)
CC(C(=O)O)c1ccc(-c2ccccc2)c(F)c1 (stereo not given)	14800 nM (active)
O=c1c(-c2ccc(O)cc2)coc2cc(OC3O[C@H](CO)[C@H](O)[C@H](O)[C@H]3O)cc(O)c12 (stereo not given in full)	1480 nM (active)
COc1ccc(-n2c(C)c([N+](=O)[O-])c3ccc(O)cc32)cc1	14800 nM (active)
COc1ncc(-c2ccc3nccc(-c4ccnnc4)c3c2)cc1NS(=O)(=O)c1ccc(F)cc1F	166 nM (active)
CC(C)(C)Cn1c(N)nc2ccc(-c3[nH]c(C(C)(C)C)nc3-c3ccc(F)cc3)nc21	18700 nM (active)
COc1cc(N2CCC(N3CCN(C)CC3)CC2)ccc1Nc1ncc(Cl)c(Nc2ccccc2S(=O)(=O)C(C)C)n1	264 nM (active)
CC=CCC=CCCC(=O)[C@H]1O[C@@H]1C(N)=O	14800 nM (active)
COc1cc(Nc2ncc(F)c(Nc3ccc4c(n3)NC(=O)C(C)(C)O4)n2)cc(OC)c1OC	743 nM (active)
C=C1C(=O)[C@@]23C(CC[C@@H]1[C@H]2O)[C@@]12CO[C@]3(O)[C@@H](O)[C@@H]1C(C)(C)CC[C@@H]2O (stereo not given in full)	296 nM (active)
CCNc1cc(NC2CCC(O)CC2)nc(Nc2ccc3c(ccn3Cc3ccccc3)c2)n1 (stereo not given)	16600 nM (active)
O=C(CCCCCCC(=O)Nc1ccccc1)NO	2350 nM (active)
CN(C[C@@H]1COCCO1)S(=O)(=O)Nc1ccc2ccc3ncc(-c4cnn(C)c4)cc3c(=O)c2c1	469 nM (active)
O=c1cc(CN2CCOCC2)occ1OCCCCCSc1ccnc2cc(C(F)(F)F)ccc12	11800 nM (active)
CN(C)Cc1cccc(N=C(c2ccccc2)c2c(O)[nH]c3cc(C(=O)N(C)C)ccc23)c1	935 nM (active)
Cc1[nH]c(C=C2C(=O)Nc3ccc(S(=O)(=O)Cc4c(Cl)cccc4Cl)cc32)c(C)c1C(=O)N1CCC[C@H]1CN1CCCC1	10500 nM (active)
Cc1ccc(F)c(NC(=O)Nc2ccc(-c3cccc4[nH]nc(N)c34)cc2)c1	4690 nM (active)
CS(=O)c1ccc(-c2nc(-c3ccc(F)cc3)c(-c3ccncc3)[nH]2)cc1 (stereo not given)	9590 nM (active)
Cc1nc(N)sc1-c1ccnc(Nc2ccc(N3CCOCC3)cc2)n1	1050 nM (active)

* * *

Experimental protocol: qHTS profiling of the MIPE4 collection as inhibitors of Plasmodium falciparum (3D7) proliferation (AID 743344);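 further: scaled between DMSO vehicle wells and 0.29 µM artemisinin as full inhibition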
Test conditions: P. falciparum 3D7 in erythrocytes, SYBR Green DNA fluorescence, 72 h; at 28.5 µM (top of the series) unless noted
Experimental: Plasmodium falciparum is a virulent malarial parasite that kills 1-2 million people worldwide each year. […] Because mature erythrocytes lack DNA, only Plasmodium-derived DNA is detected. The SYBR Green viability assay was adapted from a method described previously (Plouffe et al., 2008). […] The following morning, fluorescence intensity at 485(14) nm excitation and 535(25) nm emission wavelengths was measured on an EnVision (Perkin Elmer) plate reader. […]
Result type: parasite growth, % of DMSO control (%)

Compound	Result type	Observed value
Nc1ncnc2ccccc12	parasite growth, % of DMSO control	84.9
COc1ccc(-n2c(C)c([N+](=O)[O-])c3ccc(O)cc32)cc1	parasite growth, % of DMSO control	80.7
CS(=O)(=O)N(Cc1ccco1)CC(O)Cn1c2ccccc2c2ccccc21 (centres undefined)	parasite growth, % of DMSO control	34.3
C=C1C(=O)[C@@]23C(CC[C@@H]1[C@H]2O)[C@@]12CO[C@]3(O)[C@@H](O)[C@@H]1C(C)(C)CC[C@@H]2O (some centres undefined)	parasite growth, % of DMSO control	33.5
COc1ccc2c(Oc3ccc(NC(=O)c4c(C)n(CC(C)(C)O)n(-c5ccccc5)c4=O)nc3)ccnc2c1	parasite growth, % of DMSO control	9.27
Cc1c[nH]c(C=C2C(=O)Nc3ccccc32)c1CCC(=O)O	parasite growth, % of DMSO control	24.1
C[C@H](NC(=O)C(=O)Nc1ccccc1C(C)(C)C)C(=O)N[C@@H](CC(=O)O)C(=O)COc1c(F)c(F)cc(F)c1F	parasite growth, % of DMSO control	73.8
O=C(O)CCC1CCC(c2cc(F)ccc2F)(S(=O)(=O)c2ccc(Cl)cc2)CC1 (centres undefined)	parasite growth, % of DMSO control	66.9
O=c1c(-c2ccc(O)cc2)coc2cc(O[C@@H]3O[C@H](CO)[C@H](O)[C@H](O)[C@H]3O)ccc12	parasite growth, % of DMSO control	91.8
CC#CCn1c(N2CCC[C@@H](N)C2)nc2c1c(=O)n(Cc1nc(C)c3ccccc3n1)c(=O)n2C	parasite growth, % of DMSO control	58
COc1ccc2c(Oc3ccc(NC(=O)c4c(C)n(CC(C)(C)O)n(-c5ccccc5)c4=O)cc3F)ccnc2c1	parasite growth, % of DMSO control	18.3
NC(=O)c1cccc(-c2cc(Nc3ccc(OC(F)(F)F)cc3)ncn2)c1	parasite growth, % of DMSO control	12.3
COc1ccc2cccc(CCNC(C)=O)c2c1	parasite growth, % of DMSO control	56.4
Cc1c(O)cccc1C(=O)N[C@@H](CSc1ccccc1)[C@H](O)CN1C[C@H]2CCCC[C@@H]2C[C@@H]1C(=O)NC(C)(C)C	parasite growth, % of DMSO control	10.1
COC(=O)C1=CO[C@@H](O)[C@@H]2C(CO)=CC[C@@H]12	parasite growth, % of DMSO control	83
CCOc1ccc(Nc2nc(-c3c(C)nc4ccccn34)cs2)cc1	parasite growth, % of DMSO control	11.9
COc1ccc2cc(-c3nc(-c4ccc(S(C)=O)cc4)[nH]c3-c3ccncc3)ccc2c1 (centres undefined)	parasite growth, % of DMSO control	6.21
